Could you please report measured hERG current change (%, negative = inhibition) at 10uM for the items listed next?
target: human ether-à-go-go-related gene (hERG) potassium channel (human, UniProt Q12809); test: primary screen, population patch clamp on CHO cells stably expressing hERG; higher = less effect of the substance
Sequence (Q12809 whole entry, looked up): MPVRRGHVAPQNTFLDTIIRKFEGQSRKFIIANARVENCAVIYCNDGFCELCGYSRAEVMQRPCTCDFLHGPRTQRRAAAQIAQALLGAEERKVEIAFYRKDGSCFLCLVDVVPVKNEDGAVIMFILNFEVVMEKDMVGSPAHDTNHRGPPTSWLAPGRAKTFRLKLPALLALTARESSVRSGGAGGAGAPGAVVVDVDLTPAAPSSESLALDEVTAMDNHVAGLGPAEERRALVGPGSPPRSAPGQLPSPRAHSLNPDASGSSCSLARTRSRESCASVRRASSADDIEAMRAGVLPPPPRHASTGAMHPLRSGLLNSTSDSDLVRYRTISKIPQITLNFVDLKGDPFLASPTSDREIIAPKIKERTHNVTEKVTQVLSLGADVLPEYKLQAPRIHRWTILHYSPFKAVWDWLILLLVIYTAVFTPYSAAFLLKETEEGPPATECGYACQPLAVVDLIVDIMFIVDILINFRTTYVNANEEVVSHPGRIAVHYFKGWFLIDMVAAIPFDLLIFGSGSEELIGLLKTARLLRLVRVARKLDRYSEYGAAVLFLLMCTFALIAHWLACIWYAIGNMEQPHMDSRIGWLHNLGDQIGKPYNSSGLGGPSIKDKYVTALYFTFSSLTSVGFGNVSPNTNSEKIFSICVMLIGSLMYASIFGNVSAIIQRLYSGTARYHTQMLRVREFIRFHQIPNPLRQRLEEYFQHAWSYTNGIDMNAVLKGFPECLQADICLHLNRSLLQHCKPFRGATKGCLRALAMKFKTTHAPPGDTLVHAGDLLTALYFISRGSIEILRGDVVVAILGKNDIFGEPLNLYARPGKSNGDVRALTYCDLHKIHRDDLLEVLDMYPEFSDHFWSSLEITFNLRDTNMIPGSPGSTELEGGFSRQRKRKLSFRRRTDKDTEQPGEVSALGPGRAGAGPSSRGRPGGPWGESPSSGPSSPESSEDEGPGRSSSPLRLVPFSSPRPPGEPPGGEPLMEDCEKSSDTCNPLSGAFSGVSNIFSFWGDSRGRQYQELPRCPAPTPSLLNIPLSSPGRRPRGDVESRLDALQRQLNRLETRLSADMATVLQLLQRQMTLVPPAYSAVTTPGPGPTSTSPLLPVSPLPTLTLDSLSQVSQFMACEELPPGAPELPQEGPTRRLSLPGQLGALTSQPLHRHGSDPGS
The campaign covered roughly 310,000 compounds. About 14,000 (4.5%) showed an effect of 50% or more. Effects have a minus sign here. Many of the other results were omitted from the sample, so strong results are more common in it than they were.
Give bare numbers, in %.

COMPOUND: Cc1ccc(CN2CCN(Cc3ccc4c(c3)OCCO4)CC2CCO)cc1 (centres unmarked)
TARGET: human ether-à-go-go-related gene (hERG) potassium channel (human, UniProt Q12809)
MEASUREMENT UNITS: %
OBSERVED MEASUREMENT: -39.8
--
COMPOUND: COc1ccc(-c2csc(N)n2)cc1
TARGET: human ether-à-go-go-related gene (hERG) potassium channel (human, UniProt Q12809);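 note: peak tail current of the secondary pulse compared with the same well before compound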
MEASUREMENT UNITS: %
OBSERVED MEASUREMENT: -6.71
--
COMPOUND: COC(=O)c1ccc(CN2CCN(CCCc3ccccc3)C(CCO)C2)cc1 (centres unmarked)
TARGET: human ether-à-go-go-related gene (hERG) potassium channel (human, UniProt Q12809);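 note: peak tail current of the secondary pulse compared with the same well before compound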
MEASUREMENT UNITS: %
OBSERVED MEASUREMENT: -64.1
--
COMPOUND: CCCCN(Cc1nc2ccccc2c(=O)[nH]1)C(=O)CN1C(=O)NC2(CCCCC2)C1=O
TARGET: human ether-à-go-go-related gene (hERG) potassium channel (human, UniProt Q12809);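 note: peak tail current of the secondary pulse compared with the same well before compound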
MEASUREMENT UNITS: %
OBSERVED MEASUREMENT: -41.9
--
COMPOUND: O=C1CCc2cc(S(=O)(=O)NC3CCCCC3)ccc2N1
TARGET: human ether-à-go-go-related gene (hERG) potassium channel (human, UniProt Q12809);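 note: peak tail current of the secondary pulse compared with the same well before compound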
MEASUREMENT UNITS: %
OBSERVED MEASUREMENT: -19.3

Hey, can you go through the list below and give me hERG current change (%, negative = inhibition) at 10uM for every item?
1. CCCCCN(C(=O)CCC(=O)OC(C)C(=O)NCc1ccccc1)c1c(N)n(CCCC)c(=O)[nH]c1=O (centres unmarked)
2. O=C(COC(=O)CNC(=O)c1ccccc1)NCCc1ccccc1
3. Cc1ccn2c(Nc3ccc4c(c3)OCO4)c(-c3ccccn3)nc2c1
4. O=C(COC(=O)CCc1c[nH]c2ccccc12)Nc1ccccc1C(F)(F)F

[-14.5, 4.17, -67.4, -5.09]

Hey, can you go through the list below and give me hERG current change (%, negative = inhibition) at 10uM for every item?
1. CCN(CC)CC(=O)Nc1ccc(-c2nc3cc(NC(=O)CN(CC)CC)ccc3o2)cc1
2. CCN(CC)c1ccc(NC(=O)CSc2ccsc2[N+](=O)[O-])c(C)c1
3. Cc1cc(=O)n2c3ccccc3n(CC(O)CN3CCOCC3)c2c1C#N (centres unmarked)
4. COc1ccc(NC(=S)N2CCN(C/C=C/c3ccccc3)CC2)cc1

1. -18.1
2. 5.74
3. 17.9
4. -24.1

Hey, can you go through the list below and give me hERG current change (%, negative = inhibition) at 10uM for every item?
1. COc1cc(NC(=O)CCN2CCN(C/C=C/c3ccccc3)CC2)cc(OC)c1
2. Cc1ccc(-c2nc3cnccn3c2Nc2ccc3c(c2)OCCO3)o1
3. Cc1ccccc1NC(=O)Cc1nnc(N)s1
4. COC(=O)C1C(O)=C(C=Nc2cccc3ccccc23)C(=O)CC1(C)C (centres unmarked)

[-69.3, -23.8, 11.3, -2.34]

Hey, can you go through the list below and give me hERG current change (%, negative = inhibition) at 10uM for every item?
1. O=S(=O)(Nc1nc2cc3c(cc2nc1Cl)OCCO3)c1ccccc1
2. Cc1ccc(Nc2c(-c3ccccn3)nc3cc(C)ccn23)cc1
3. CCOC(=O)c1ccc(NC(=O)C2CCN(S(=O)(=O)c3c(C)nn(C)c3C)CC2)cc1
4. O=C(CC1SC(N2CCCC2)=NC1=O)Nc1ccc(C(=O)N2CCCC(C(F)(F)F)C2)cc1 (centres unmarked)
5. COc1cc(/C=N/n2nnnc2N)cc(OC)c1OC
6. COc1ccccc1C(=O)COC(=O)c1nc(Cl)ccc1Cl
7. COc1ccc(-c2cc(C(=O)c3c(N)n(C)c(=O)n(C)c3=O)c3ccccc3n2)cc1
8. O=[N+]([O-])c1cccc(N/N=C/c2cccc(O)c2O)c1

1. -15.5
2. -48.1
3. -28.3
4. 18.8
5. -0.774
6. -0.91
7. -15.5
8. 16.7
